Data origin, for the record: ChEMBL document CHEMBL5303573

assay: The drug is tested on Escherichia coli strain: BW25113 for biotransformation. The drug concentrations were measured before and after a 12-h incubation by liquid-chromatography-coupled mass spectrometry (LC–MS); conditions: 2 µM
measurementName: Bacterial Biotransformation

CCOC(=O)[C@H](CCc1ccccc1)N[C@@H](C)C(=O)N1CCC[C@H]1C(=O)O.O=C(O)/C=C\C(=O)O [ENALAPRIL MALEATE]; Compound NOT metabolized
CS(=O)(=O)O.OC(CCN1CCCCC1)(c1ccccc1)c1ccccc1 [PRIDINOL METHANESULFONATE]; Compound NOT metabolized
Cc1nc2n(c(=O)c1CCN1CCC(c3noc4cc(F)ccc34)CC1)CCCC2 [RISPERIDONE]; Compound NOT metabolized
